- ASSAY_SYSTEM: Orexin receptor type 2 (Homo sapiens)
- EXPERIMENT_DESCRIPTION: Antagonist activity at OX2 receptor expressed in CHO cells assessed as inhibition of orexin-A-induced calcium mobilization by FlexStation assay
- Type: functional, cell-based
PARAMETER: Ke (nM)

1) O=C(Nc1ccc2c(c1)OCO2)Nc1ccnc2c(F)cccc12
1620
2) Cc1nc2ccc(NC(=O)Nc3ccnc4cccnc34)cc2o1
1190

###

- ASSAY_SYSTEM: Orexin/Hypocretin receptor type 1 (Homo sapiens) (UniProt O43613)
- Sequence (O43613 whole entry): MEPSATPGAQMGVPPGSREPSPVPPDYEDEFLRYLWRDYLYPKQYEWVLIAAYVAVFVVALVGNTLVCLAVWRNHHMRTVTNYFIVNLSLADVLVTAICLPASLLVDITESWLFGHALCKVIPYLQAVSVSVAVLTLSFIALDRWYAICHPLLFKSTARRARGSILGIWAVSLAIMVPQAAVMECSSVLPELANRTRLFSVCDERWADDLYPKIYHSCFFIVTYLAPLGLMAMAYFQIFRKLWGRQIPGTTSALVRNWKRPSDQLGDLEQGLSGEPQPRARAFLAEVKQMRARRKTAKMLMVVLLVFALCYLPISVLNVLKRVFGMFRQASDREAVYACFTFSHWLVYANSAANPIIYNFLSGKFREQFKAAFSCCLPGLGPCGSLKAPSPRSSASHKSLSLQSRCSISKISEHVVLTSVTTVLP
- EXPERIMENT_DESCRIPTION: Antagonist activity at OX1 receptor expressed in CHO cells assessed as inhibition of orexin-A-induced calcium mobilization by FlexStation assay
- Format: functional, cell-based
PARAMETER: Ke (nM)

1) Cc1nc2ccc(NC(=O)Nc3ccnc4cccnc34)cc2o1
45

[a] COc1ccc(NC(=O)Nc2ccnc3c(F)cccc23)cc1OC
[b] O=C(Nc1ccc2c(c1)OCO2)Nc1ccnc2c(F)cccc12
Challenge: Between a and b , which one shows the larger Ke value? Response format: the label of the selected entry.
Response given: a
(a: 965 nM, b: 13.4 nM)
